Reference source: the DeepSol protein solubility set

assay: soluble on expression in E. coli; label from the status in PepcDB or PDB records

{"Polymer sequence": "MGSDKIHHHHHHMHDVLIIGSGVIGMSIARHLSATHLDVAVIDRDVPGKHASYKAGGMLGAQNEFTEDSDLFQLAIESRAMFPQLSKSLLDETGIDIQFKNSGLIKIANEHDDISSIKRQYQFLNSQDRSVKQLSDDDLLQLTHGEVKPSYAAIHIPHDGQINAHHYTLALLESMKLRDIKRYESTEVTSIERHNGYYSVKTDQSSTIEAHKIIVAGGAWSSQLLTQYHLQRQVIGVKGEVILLENNDLSLTETLFMTNGCYIVPKQPNRFLIGATSEFNNYSVGTTDEGMDWLLRHAYHRVPQLKDSHILKKWSGVRPYTEKEMPVMDQIDDGLYVISGHYRNGILLSPIIGRDIANWLLSGIKPSRYSSFTVTRRNNHEVYH", "soluble on expression in E. coli": "not soluble"}
{"Polymer sequence": "GHHHHHHAIAENLYFQSNSHDGSNFSNKFSAHKDVVEDLLRKDTVGLVTFQDFRARREYLERCAVAEAACQNASRRAEELETKKKRVKRANLSRLSFGDSLEDQEENSVEFAKITRFASSKKANGVGFNTSGQDIVKEPDVFSPKEEGFFGKQNRKIGMDPGVDTSFLPDRDREQEERLERERLKQQWLSEQERVKNEEIDIIYSIWDGRGQRKLLSCKKGTTIAKFLSIVQQKVSTLKHCKVEDLMFIKEDMIIPHHLSFYDLISMKARGKNGSLFCFDVHEDIRIRNDASVEKDDSHAAKVVERRWYERNKHIYPASMWEVFDVSKNYGRVQKDFFGN", "soluble on expression in E. coli": "not soluble"}
